Test system: NQO1 activation in BEAS-2B cells
Test: BEAS-2B cellular MTT assay of NQO1 activation, 0% HSA
Format: cell-based
Conditions: Homo sapiens, Serum Free W, read-out: BEAS EC50 (nM) Serum Free W
observed.property: EC50 (nM)
Return type: number; implicit unit nM.

Known EC50 results, listed for orientation:
>>> df
                                   compound  value_unit  observed
0  COc1cc2ccc1C(=O)N1CCc3ccc(cc3C1)[C@H](CC(=O)O)c1cnc3c(nnn3CCCCCC2)c1C [Compound 94]          nM      36.8
1  COc1cc2ccc1CCCCCCn1nnc3c(C)c(cnc31)C(CC(=O)O)c1ccc3c(c1)CN(CC3)C2=O (stereo not shown) [Compound 104]          nM        30

Task: Item under review: Cc1c2ccc3c1nnn3CCCCCOc1ccc(cc1)C(=O)N1CCc3ccc(cc3C1)[C@@H]2[C@@H](C)C(=O)O [Compound 118] . Reported EC50?
Output: 2.5

Task: Item under review: Cc1cc2cc3c1CCN(C3)C(=O)c1ccc(cc1)CCCCCCn1nnc3c(C)c(cnc31)[C@H]2CC(=O)O [Compound 93] . Reported EC50?
Output: 3.4

Task: Item under review: Cc1c2ccc3c1nnn3C/C=C/CCCc1ccc(c(F)c1)C(=O)N1CCc3ccc(cc3C1)C2C(C)C(=O)O (stereo not shown) [Compound 375] . Reported EC50?
Output: 2.9

Task: Item under review: Cc1c2cnc3c1nnn3CCCCCCc1cccc(c1)C(=O)N1CCc3ccc(cc3C1)C2CC(=O)O (stereo not shown) [Compound 355] . Reported EC50?
Output: 810

Task: Item under review: Cc1cc2ncc1[C@@H]([C@@H](C)C(=O)O)c1ccc3c(c1)CN(CC3)C(=O)c1ccc(cc1)C/C=C/CCO2 [Compound 61] . Reported EC50?
Output: 422

Value source: patent US12692274B2
